Target: FAK (Homo sapiens, UniProt Q05397)
Construct: endogenous in cells; host or cells: U87MG glioblastoma cells (ATCC HTB-14)
Sequence (Q05397 whole entry): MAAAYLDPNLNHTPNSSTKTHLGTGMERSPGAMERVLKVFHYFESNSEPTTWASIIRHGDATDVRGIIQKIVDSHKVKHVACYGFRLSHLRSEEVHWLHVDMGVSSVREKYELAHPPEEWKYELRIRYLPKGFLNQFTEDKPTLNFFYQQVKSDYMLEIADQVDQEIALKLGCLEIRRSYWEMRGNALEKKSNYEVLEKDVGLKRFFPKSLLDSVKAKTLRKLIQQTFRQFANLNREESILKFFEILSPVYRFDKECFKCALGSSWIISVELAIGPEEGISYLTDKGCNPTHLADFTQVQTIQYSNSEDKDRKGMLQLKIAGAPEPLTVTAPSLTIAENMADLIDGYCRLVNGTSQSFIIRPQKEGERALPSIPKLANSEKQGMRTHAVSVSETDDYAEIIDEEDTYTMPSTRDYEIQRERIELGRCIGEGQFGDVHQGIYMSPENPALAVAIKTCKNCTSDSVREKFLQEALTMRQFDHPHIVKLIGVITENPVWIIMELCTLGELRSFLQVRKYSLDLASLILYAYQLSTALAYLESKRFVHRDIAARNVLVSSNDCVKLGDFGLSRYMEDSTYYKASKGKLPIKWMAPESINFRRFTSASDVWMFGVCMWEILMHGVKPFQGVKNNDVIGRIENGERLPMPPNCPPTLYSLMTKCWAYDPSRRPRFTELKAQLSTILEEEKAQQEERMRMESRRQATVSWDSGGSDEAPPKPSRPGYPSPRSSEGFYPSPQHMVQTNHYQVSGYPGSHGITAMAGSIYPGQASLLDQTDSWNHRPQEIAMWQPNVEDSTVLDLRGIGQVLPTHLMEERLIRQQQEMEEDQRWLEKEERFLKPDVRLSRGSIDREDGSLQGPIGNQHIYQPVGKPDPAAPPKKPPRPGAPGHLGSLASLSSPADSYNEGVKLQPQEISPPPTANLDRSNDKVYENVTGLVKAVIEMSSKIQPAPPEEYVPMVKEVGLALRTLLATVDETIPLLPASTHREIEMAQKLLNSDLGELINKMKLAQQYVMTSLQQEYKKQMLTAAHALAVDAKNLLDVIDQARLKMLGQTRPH
Assay: Cell-based capture ELISA for inhibition of FAK autophosphorylation [pY397] in U87MG cells
Details: 50% (v/v) mouse plasma, mean IC50, read-out: FAK Activity Mechanistic (U87MG) MP
This listing pairs molecules with measured IC50.

// worked examples, IC50 included
>  <Molecule>
CNC(=O)c1nc2ccc1Nc1nc(ncc1C(F)(F)F)Nc1ccc(cc1OC)CP(=O)(C(C)C)OCCCn1cc-2cn1 (racemic) [Example 68]

>  <Measure>
IC50

>  <Result>
< 400 nM

$$$$
>  <Molecule>
CCCP1(=O)Cc2ccc(c(OC)c2)Nc2ncc(C(F)(F)F)c(n2)Nc2ccc(cc2C(=O)NC)-c2cnn(c2)CCCO1 (racemic) [Example 66]

>  <Measure>
IC50

>  <Result>
< 400 nM

$$$$
>  <Molecule>
CCOP1(=O)Cc2ccc(c(OC)c2)Nc2ncc(C(F)(F)F)c(n2)Nc2ccc(nc2C(=O)NC)-c2cn(nc2OC)CCCO1 (single isomer, unassigned) [Example 48A]

>  <Measure>
IC50

>  <Result>
400 to 4000 nM

$$$$
>  <Molecule>
CCOP1(=O)Cc2ccc(c(OC)c2)Nc2cc(c(C(F)(F)F)cn2)Nc2ccc(nc2C(=O)NC)-c2cnn(c2)CCCO1 (racemic) [Example 36]

>  <Measure>
IC50

>  <Result>
400 to 4000 nM

$$$$
>  <Molecule>
CCOP1(=O)Cc2ccc(c(OC)c2)Nc2ncc(C(F)(F)F)c(n2)Nc2ccc(c(C)c2C(=O)NC)-c2cnn(c2)CCCO1 (racemic) [Example 29]

>  <Measure>
IC50

>  <Result>
> 4000 nM

$$$$

stdin: Write down the reported IC50 of CCOP1(=O)Cc2ccc(c(OC)c2)Nc2ncc(C(F)(F)F)c(n2)Nc2ccc(nc2C(=O)NC)-c2cnn(c2Cl)CCCO1 (racemic) [Example 51] , test system: FAK (Homo sapiens, UniProt Q05397).
stdout: 400 to 4000 nM

stdin: Would you kindly repeat that for CCOP1(=O)Cc2ccc(c(OC)c2)Nc2ncc(C(F)(F)F)c(n2)Nc2ccc(c(OC)c2C(=O)NC)-c2cnn(c2)CCCO1 (racemic) [Example 30] ?
stdout: 400 to 4000 nM

stdin: Would you kindly repeat that for CCP1(=O)Cc2ccc(c(OC)c2)Nc2ncc(C(F)(F)F)c(n2)Nc2ccc(nc2C(=O)NC)-c2cnn(c2)CCCO1 (racemic) [Example 67] ?
stdout: < 400 nM

stdin: Would you kindly repeat that for CNC(=O)c1nc2ccc1Nc1nc(ncc1C(F)(F)F)Nc1ccc(cc1OC)CP(=O)(C(C)C)OCCCn1cc-2cn1 (single isomer, unassigned) [Example 68A] ?
stdout: 400 to 4000 nM

stdin: Would you kindly repeat that for CCOP1(=O)Cc2ccc(c(OC)c2)Nc2ncc(C(F)(F)F)c(n2)Nc2ccc(c(F)c2C(=O)NC)-c2cnn(c2)CCCO1 (racemic) [Example 27] ?
stdout: 400 to 4000 nM

stdin: Would you kindly repeat that for CCOP1(=O)Cc2cc(OC)c(cc2Cl)Nc2ncc(C(F)(F)F)c(n2)Nc2ccc(nc2C(=O)NC)-c2cnn(c2)CC2(COC2)CO1 (single isomer, unassigned) [Example 57A] ?
stdout: 400 to 4000 nM

stdin: Would you kindly repeat that for CCP1(=O)Cc2ccc(c(OC)c2)Nc2ncc(C(F)(F)F)c(n2)Nc2ccc(nc2C(=O)NC)-c2cnn(c2)CCCO1 (single isomer, unassigned) [Example 67A] ?
stdout: 400 to 4000 nM
